The entries below come with measured Enzymatic activity pIC50 C.1. values attached.
assayedSystem: histone deacetylase (HeLa nuclear extracts)
experimentalProtocol: In vitro assay for inhibition of histone deacetylase (HDAC Fluorescent Activity Assay, Fluor de Lys)
Assay type: biochemical
experimentalConditions: Fluor de Lys substrate
Description: The in vitro assay for inhibition of histone deacetylase (see example C.1) measures the inhibition of HDAC enzymatic activity obtained with the compounds of formula (I). […] After 30 min, 1 volume of the developer was added. […] For each sample the fluorescence was expressed as a percentage of the mean value of the controls. […] Herein the effects of test compounds are expressed as pIC50 (the negative log value of the IC50-value) (see Table F-3).

compound	assayedSystem	comparisonOperator	Enzymatic activity pIC50 C.1.
CCOCC(/C=C/c1ccccc1)N1CCN(c2ncc(C(=O)NO)cn2)CC1 (centres unmarked)	histone deacetylase (HeLa nuclear extracts)	=	8.8
Cc1ccc(/C=C/C(CO)N2CCN(c3ncc(C(=O)NO)cn3)CC2)cc1 (centres unmarked)	histone deacetylase (HeLa nuclear extracts)	=	9.0
CC(/C=C/c1ccccc1)N1CCN(c2ncc(C(=O)NO)cn2)CC1 (centres unmarked) [Compound 35]	histone deacetylase (HeLa nuclear extracts)	=	9.6
COCC(/C=C/c1ccc(F)cc1)N1CCN(c2ncc(C(=O)NO)cn2)CC1 (centres unmarked)	histone deacetylase (HeLa nuclear extracts)	>	9
COc1ccc(/C=C/C(CO)N2CCN(c3ncc(C(=O)NO)cn3)CC2)cc1 (centres unmarked)	histone deacetylase (HeLa nuclear extracts)	=	8.1
CN1CCN(CC(/C=C/c2ccccc2)N2CCN(c3ncc(C(=O)NO)cn3)CC2)CC1 (centres unmarked)	histone deacetylase (HeLa nuclear extracts)	=	7.9
O=C(NO)c1ccc(N2CCN(C(/C=C/c3ccc(F)cc3)CO)CC2)nc1 (centres unmarked)	histone deacetylase (HeLa nuclear extracts)	=	8.5
O=C(NO)c1cnc(N2CCN(C(/C=C/c3ccc(C(F)(F)F)cc3)CO)CC2)nc1 (centres unmarked)	histone deacetylase (HeLa nuclear extracts)	=	7.6
CN(C)CCNC(=O)C(/C=C/c1ccccc1)N1CCN(c2ncc(C(=O)NO)cn2)CC1 (centres unmarked)	histone deacetylase (HeLa nuclear extracts)	=	8.5
O=C(NO)c1cnc(N2CCN([C@@H](/C=C/c3ccccc3)CO)CC2)nc1 (single isomer, unassigned) [Compound 25]	histone deacetylase (HeLa nuclear extracts)	=	7.9
CC(/C=C/c1ccccc1)N1CCN(c2ncc(C(=O)NO)cn2)CC1 (centres unmarked) [Compound 7]	histone deacetylase (HeLa nuclear extracts)	>	9
O=C(NO)c1cnc(N2CCN(C(/C=C/c3ccccc3)C(=O)N3CCOCC3)CC2)nc1 (centres unmarked)	histone deacetylase (HeLa nuclear extracts)	=	8.8
CC(=O)OCC(/C=C/c1ccccc1)N1CCN(c2ncc(C(=O)NO)cn2)CC1 (centres unmarked)	histone deacetylase (HeLa nuclear extracts)	=	9.4
O=C(NO)c1cnc(N2CCN([C@@H](/C=C/c3ccccc3)CO)CC2)nc1 (single isomer, unassigned) [Compound 26]	histone deacetylase (HeLa nuclear extracts)	=	8.3
CCN(C)C(=O)C(C)(/C=C/c1ccc(F)cc1)N1CCN(c2ncc(C(=O)NO)cn2)CC1 (centres unmarked)	histone deacetylase (HeLa nuclear extracts)	=	8.5
O=C(NO)c1cnc(N2CCN(C(/C=C/c3ccccc3)C(=O)NC3CC3)CC2)nc1 (centres unmarked)	histone deacetylase (HeLa nuclear extracts)	=	7.6
O=C(NO)c1cnc(N2CCN(C(/C=C/c3ccccc3)Cn3ccnc3)CC2)nc1 (centres unmarked)	histone deacetylase (HeLa nuclear extracts)	=	8.0
